Molecular target: TSH receptor of isolated porcine thyroid cells (porcine, UniProt Q8SPP9 22-764)
Sequence (Q8SPP9 22-764): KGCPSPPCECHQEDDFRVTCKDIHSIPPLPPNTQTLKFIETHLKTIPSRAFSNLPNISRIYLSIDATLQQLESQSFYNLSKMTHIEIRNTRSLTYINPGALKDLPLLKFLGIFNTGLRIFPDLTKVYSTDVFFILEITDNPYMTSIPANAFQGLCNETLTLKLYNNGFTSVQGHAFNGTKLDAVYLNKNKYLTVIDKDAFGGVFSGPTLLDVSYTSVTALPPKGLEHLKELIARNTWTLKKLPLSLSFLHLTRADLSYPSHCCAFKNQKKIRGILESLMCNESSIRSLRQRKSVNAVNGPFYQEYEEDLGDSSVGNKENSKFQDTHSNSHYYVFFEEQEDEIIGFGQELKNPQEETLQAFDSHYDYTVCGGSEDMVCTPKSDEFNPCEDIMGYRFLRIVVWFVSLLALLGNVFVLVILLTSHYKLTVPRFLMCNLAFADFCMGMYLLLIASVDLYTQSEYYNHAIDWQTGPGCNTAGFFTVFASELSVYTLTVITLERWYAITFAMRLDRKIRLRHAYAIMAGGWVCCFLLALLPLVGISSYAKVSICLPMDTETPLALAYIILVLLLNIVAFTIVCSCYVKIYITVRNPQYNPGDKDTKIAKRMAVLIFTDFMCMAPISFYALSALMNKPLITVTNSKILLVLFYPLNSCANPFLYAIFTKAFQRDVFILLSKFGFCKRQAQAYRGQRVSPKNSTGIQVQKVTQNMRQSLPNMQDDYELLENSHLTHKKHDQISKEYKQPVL
Experiment: cell-based or functional assay
Readout label: Stimulation (%) of cyclic AMP, isolated porcine thyroid cells; 200 µg/ml

>>> reading("14D3 IgG (antibody, V domains shown, not shown: a dimerising Fc or GST, mouse monoclonal IgG; also called MAb 14D3) VH: DVQMQQPGPELVKPGASLKMSCKASGYSFTGYNMHWVKQSHGKSLEWIGYIDPYSGATSYNQKFEGKATLTVDKSSSTAYMQLNSLTSEDSAVYYCARRWDWDPYAMDYWGQGTSVTVSS VL: NILMTQSPAILSVSPGERVSFACRASQSIGTSIHWYQQRTNGSPRLLIKYASESISGIPSRFSGSGSGTDFTLSINSVESEDIADYYCQQTNRWPLTFGAGTKLELKR")
"557%"
>>> reading("3B3 IgG (antibody, V domains shown) VH: DVQLQQPGAELVKPGASVKLSCTTSGVNIKDTYMHWMKQRPEQGLEWIGRIDPANGNTKYDPKFRGKATITADTSSNTVYVQLRSLTSEDTAVYYCAYDGYWGQGTLVTVSA VL: NIVMTQTPASLAVSLGQRATISCRASESVDSYGNNFMHWYQQKPGQSPRLLIYRASNLESGIPARFSGSGSRTDFTLTTNPVEADDVATYYCQQSHKDPLTFGAGTKLELK")
"34%"
>>> reading("17D2 IgG (antibody, V domains shown, not shown: a dimerising Fc or GST, mouse monoclonal IgG) VH: DVQIQQSGPELVKPGASVKMSCKASGYSFTAYNMHWVKQTHGKSLEWIGYIDPYSGATSYHQKFKGKATLTVDKSSSTAYMRLNSLTSEDSAVYYCARRWDWDPYAMDYWGQGTSVTVSS VL: SVEMSQSPAILSVSPGERISFSCRASQSIGTSIHWYQQRTNGSPRLLIKYASASISGIPSRFSGSGSGTDFTLSINSVESEDIADYYCQQSNSWPLTFGAGTKLELKR")
"377%"
>>> reading("16E5 Fab (Fab, V domains shown, papain Fab of the mouse MAb) VH: DVQLVQSGPELVKPGASVKMSCKASGYSFTGYNMHWVKQSHGKSLEWIGYIDPYNGATSYNQKFEDKATLTVDKSSSTAYMQLNSLTSEDSAVYYCARRWDWDPYAMDYWGQGTSVTVSS VL: DILLTQSPAILSVSPGERVSFSCRASQSIGTSIHWYQQRTNGSPRLLIKYASESISGIFSRFSGSGSGTDFTLTINSVESEDIADYYCQQSNRWPLTFGAGTKLELKR")
"425%"
>>> reading("3B3 Fab (Fab, V domains shown) VH: DVQLQQPGAELVKPGASVKLSCTTSGVNIKDTYMHWMKQRPEQGLEWIGRIDPANGNTKYDPKFRGKATITADTSSNTVYVQLRSLTSEDTAVYYCAYDGYWGQGTLVTVSA VL: NIVMTQTPASLAVSLGQRATISCRASESVDSYGNNFMHWYQQKPGQSPRLLIYRASNLESGIPARFSGSGSRTDFTLTTNPVEADDVATYYCQQSHKDPLTFGAGTKLELKR")
"42%"

The reported measurements were obtained from patent US20050118638A1.
